Hey, just so you know, these numbers are from patent US20210388081A1.

Target: T1, Fc Receptor-like 5 (FcRL5), full length, overexpressed on 3T3 or Raji cells (human, UniProt Q96RD9 16-977)
T1 construct: also called 3T3-FcRL5
T1 sequence: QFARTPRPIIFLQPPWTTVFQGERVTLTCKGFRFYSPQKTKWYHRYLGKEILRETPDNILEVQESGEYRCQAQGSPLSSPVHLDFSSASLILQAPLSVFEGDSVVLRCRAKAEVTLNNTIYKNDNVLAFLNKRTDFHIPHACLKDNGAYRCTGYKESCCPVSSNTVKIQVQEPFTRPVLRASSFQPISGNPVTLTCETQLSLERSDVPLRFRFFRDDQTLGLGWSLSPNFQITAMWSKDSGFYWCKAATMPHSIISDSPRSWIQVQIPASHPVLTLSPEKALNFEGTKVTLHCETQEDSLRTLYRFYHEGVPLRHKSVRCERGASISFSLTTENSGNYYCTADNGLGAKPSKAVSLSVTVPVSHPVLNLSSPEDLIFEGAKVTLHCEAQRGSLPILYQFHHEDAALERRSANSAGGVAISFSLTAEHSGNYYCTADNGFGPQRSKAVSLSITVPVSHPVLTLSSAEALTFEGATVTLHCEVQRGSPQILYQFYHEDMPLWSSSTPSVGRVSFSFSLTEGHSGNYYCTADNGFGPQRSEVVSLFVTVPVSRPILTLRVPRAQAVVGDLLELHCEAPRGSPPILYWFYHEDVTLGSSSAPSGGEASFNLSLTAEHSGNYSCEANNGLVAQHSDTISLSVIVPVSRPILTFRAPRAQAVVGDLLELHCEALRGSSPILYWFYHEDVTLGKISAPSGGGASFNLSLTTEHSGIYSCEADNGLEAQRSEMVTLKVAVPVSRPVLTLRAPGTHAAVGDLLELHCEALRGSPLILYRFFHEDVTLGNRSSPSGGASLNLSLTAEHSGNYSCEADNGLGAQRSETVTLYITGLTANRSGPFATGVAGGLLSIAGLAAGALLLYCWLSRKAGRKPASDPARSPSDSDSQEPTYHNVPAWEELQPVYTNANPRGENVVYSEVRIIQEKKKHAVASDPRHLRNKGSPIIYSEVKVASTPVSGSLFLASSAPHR
Experiment: phage clone screening on cells

- BINDER: "ET200-098 (scFv, screened as phage clone; entry is VL-linker-VH-His tag-HA tag) scFv: QPVLTQPPSVSKGLRQTATLTCTGNSNNVGNLGVAWLQQHQGHPPKLLSYRNNNRPSGISERLSASRSGNTASLTITGLQPEDEADYYCSAWDSSLSAWVFGGGTKLTVLGSRGGGGSGGGGSGGGGSLEMAEVQLVESGGVVVQPGGSLRLSCAASGFTFDDYAMHWVRQAPGKGLEWVSLINWDGGSTYYADSVKGRFTISRDNSKNSLYLQMNSLRAEDTALYYCAKGMGLRAFDYWGQGTLVTVSSTSGQAGQHHHHHHGAYPYDVPDYAS"
  binding result: "binds"
- BINDER: "ET200-018 (scFv, screened as phage clone; entry is VL-linker-VH-His tag-HA tag) scFv: QAVLTQPPSTSGTPGQRVTISCSGSSSNIGRNGVNWYQQLPGAAPKVLIYNDNQRPSGVPDRVSGSQSGSSGTLAIDGLRSEDEADYYCAAWDDSLHGVVFGGGTKLTVLGSRGGGGSGGGGSGGGGSLEMAQVQLVQSGAEVKKPGASVKVSCKVSGYTLNELSMHWVRQAPGKGLEWMGGFDPEDGETIYAQKFQGRVTMTEDTSTDTAYMELSSLRSEDTAVYYCARGGYGDSWGQGTLVTVSSTSGQAGQHHHHHHGAYPYDVPDYAS"
  binding result: "binds"
